target_or_system: T1, Fc-tagged human Tim3-ECD dimer (human, UniProt Q8TDQ0 22-202)
T1 construct: also called huTim3Fc; huFc fused dimeric human Tim3-ECD
procedure_text: SPR, Ab captured on anti-mouse IgG, dimeric Tim3-ECD-Fc
Quick reference: pKd of the listed items.
Value format note: pKd is -log10 of concentration (mol/L); just state the number.

Solved entries:
Given anti-TIM3 antibody Tim3_0021 (antibody, V domains shown, Mouse monoclonal from hybridoma) VH: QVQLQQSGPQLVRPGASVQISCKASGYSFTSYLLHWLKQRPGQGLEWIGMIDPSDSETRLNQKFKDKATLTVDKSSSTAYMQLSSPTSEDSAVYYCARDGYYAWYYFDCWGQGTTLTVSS VL: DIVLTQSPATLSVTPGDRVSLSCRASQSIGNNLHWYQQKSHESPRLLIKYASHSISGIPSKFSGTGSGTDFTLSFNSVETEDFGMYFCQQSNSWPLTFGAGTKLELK , state its recorded pKd.
8.39

Repeat for the following binder: anti-TIM3 antibody Tim3_0038 (antibody, V domains shown, Mouse monoclonal from hybridoma) VH: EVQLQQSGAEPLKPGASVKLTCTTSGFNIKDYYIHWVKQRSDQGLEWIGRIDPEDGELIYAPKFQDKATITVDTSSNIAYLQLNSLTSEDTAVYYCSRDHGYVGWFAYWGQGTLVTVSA VL: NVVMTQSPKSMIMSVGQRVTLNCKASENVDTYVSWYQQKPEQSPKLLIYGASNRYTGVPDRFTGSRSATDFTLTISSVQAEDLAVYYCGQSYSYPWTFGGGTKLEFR
9.22

Repeat for the following binder: anti-TIM3 antibody Tim3_0016 variant (Tim3_0018) (antibody, V domains shown, Mouse monoclonal from hybridoma; also called TIM3-0016 variant (0018); Tim3_0016 variant 0018-A488) VH: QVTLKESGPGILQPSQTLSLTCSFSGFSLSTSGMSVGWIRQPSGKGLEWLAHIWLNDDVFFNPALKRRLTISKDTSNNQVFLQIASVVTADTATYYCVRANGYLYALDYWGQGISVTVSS VL: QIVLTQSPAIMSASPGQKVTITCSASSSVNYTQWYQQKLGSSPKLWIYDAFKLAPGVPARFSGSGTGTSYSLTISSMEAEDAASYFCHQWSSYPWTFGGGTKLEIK
8.96

Continuing:
Given anti-TIM3 antibody Tim3_0026 (antibody, V domains shown, Mouse monoclonal from hybridoma) VH: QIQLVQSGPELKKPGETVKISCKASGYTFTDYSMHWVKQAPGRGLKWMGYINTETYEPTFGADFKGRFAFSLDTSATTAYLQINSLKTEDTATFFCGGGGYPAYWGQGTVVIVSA VL: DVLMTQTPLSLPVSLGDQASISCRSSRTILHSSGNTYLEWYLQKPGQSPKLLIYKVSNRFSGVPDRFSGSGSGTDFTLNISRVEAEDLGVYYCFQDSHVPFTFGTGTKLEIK , state its recorded pKd.
8.82
